biological target: SHANK1 PDZ domain (656–762) (Homo sapiens); construct: Human SHANK1 PDZ domain (656–762) was prepared as described previously; GST (N, cleaved yes); made in house; host or cells: E. coli BL21 Gold (pGEX-6P-2); assay: Fluorescence anisotropy competition assay; assay type: binding; details: competition against SHANK1/FAM-Ahx-EESTSFQGP-CONH2 interaction; 50 nM tracer; 1 μM SHANK1; 50 mM NH4OAc, pH 6.5; triplicate
Sequence (Q9Y566 656-762): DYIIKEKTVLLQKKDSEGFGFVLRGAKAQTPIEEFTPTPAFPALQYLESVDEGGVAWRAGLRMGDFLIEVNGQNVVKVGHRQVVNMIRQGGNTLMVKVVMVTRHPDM
parameter: pIC50
pIC50 is defined as minus the log10 of a concentration measured in mol/L.

Request: Give the reported pIC50 for this substance. Ac-EESTSFQGP-NH2
Response: 5.41
